biological target: Trypsin (Sus scrofa, UniProt P00761); assay: trypsin protease activity blockade – biochemical, quenched peptide fluorescence, cherry-pick, selectivity assay for Rce1 protease inhibitor project, dose response (AID 488789)
Sequence (P00761 whole entry): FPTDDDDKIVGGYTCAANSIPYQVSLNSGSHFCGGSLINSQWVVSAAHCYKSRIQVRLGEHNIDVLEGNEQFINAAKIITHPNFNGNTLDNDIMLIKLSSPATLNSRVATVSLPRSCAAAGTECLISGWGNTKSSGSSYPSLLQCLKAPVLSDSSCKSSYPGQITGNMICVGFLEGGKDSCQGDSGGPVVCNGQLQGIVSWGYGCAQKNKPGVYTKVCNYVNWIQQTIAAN
The source made the active and inactive calls.
The reply should name one outcome from true = active, false = inactive

Field: example entries. Status: answers known.
Hey, what did the test say about Cc1nc(N2CCCCC2)c2c(C)c(C(=O)Nc3ccccc3C(F)(F)F)sc2n1 ?
false

Given O=C1CSC(c2cn(-c3ccccc3)nc2-c2cc3ccccc3oc2=O)N1Cc1ccco1 (centres undefined) , state the outcome it received in this test.
true

Would you mind telling me which call this test gave CCN(CC)CCCNC(=O)c1cc2c(-c3cccc(OC)c3)nn(C)c2s1 ?
true

Okay, next one:
Dear colleague, could you share the recorded outcome for Cc1c(C)c2c(OCC(=O)NCc3ccncc3)cc3c(c2oc1=O)CCC(C)(C)O3 when you have a moment?
true

* * *

Target: Corticotropin-releasing factor receptor 2/Corticotropin-releasing factor-binding protein (Homo sapiens, UniProt P24387+Q13324)
Sequence (Q13324 whole entry): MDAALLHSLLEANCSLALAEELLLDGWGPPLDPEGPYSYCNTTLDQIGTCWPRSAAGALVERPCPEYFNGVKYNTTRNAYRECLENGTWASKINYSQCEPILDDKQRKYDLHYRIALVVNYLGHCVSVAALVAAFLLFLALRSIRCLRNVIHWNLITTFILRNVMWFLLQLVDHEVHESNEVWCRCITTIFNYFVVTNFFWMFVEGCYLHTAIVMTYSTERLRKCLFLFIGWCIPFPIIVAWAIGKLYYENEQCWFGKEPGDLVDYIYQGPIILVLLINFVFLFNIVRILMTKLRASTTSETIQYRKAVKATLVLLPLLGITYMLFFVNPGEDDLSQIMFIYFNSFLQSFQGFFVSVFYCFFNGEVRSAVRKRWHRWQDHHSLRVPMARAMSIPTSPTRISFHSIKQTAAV
Sequence (P24387 whole entry): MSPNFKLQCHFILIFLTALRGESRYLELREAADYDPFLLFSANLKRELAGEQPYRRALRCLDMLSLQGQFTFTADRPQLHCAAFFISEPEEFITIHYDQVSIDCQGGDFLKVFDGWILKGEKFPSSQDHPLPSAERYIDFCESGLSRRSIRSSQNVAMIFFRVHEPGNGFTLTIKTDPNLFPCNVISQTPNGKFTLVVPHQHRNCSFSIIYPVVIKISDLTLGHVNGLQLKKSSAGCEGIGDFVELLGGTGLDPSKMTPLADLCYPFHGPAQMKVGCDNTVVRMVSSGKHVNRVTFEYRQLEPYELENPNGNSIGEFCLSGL
Test: activators of CRF receptor 2 with binding protein – uHTS hits, confirmation (AID 602473)
Type: functional
Settings: read-out: EC50_Mean
Activity calls are given as the source filed them.
# valid calls are 1 for active, -1 for inactive; nothing else

For orientation, consider the following solved cases.
Could you check what this test reported for CCCN1C(=O)c2ccccc2NC1c1ccc(OC)c(CSc2ccccn2)c1 (stereo unspecified) ?
-1

Called result for COc1cccc(/C=C2\SC(=S)N(NS(=O)(=O)c3ccccc3)C2=O)c1OC
-1

What did the test return for COc1ccc(/C=N/NC(=O)c2ccccc2NC(=O)c2ccco2)c(OC)c1 ?
-1

Just curious, what result did O=C1S/C(=C/c2ccc(N3CCOCC3)o2)C(=O)N1Cc1ccc(F)cc1 get here?
1

Next:
GET /call?item= Cc1ccc(S(=O)(=O)N2CCOCC2)cc1C(=O)NC1CCN(Cc2ccccc2)CC1 returns the recorded outcome of this test.
-1

Record lookup: outcome of this test for CC1(C)CSC(NCc2ccccc2)=N1 ?
1
